Numbers sourced from the supplement of paper PMC8882468.

- Test system: HCI-008 (organoid from a HER2-enriched breast cancer xenograft)
- assay.method.text: CTG-3D luminescence at 96 h relative to day-0 seeding control (ratio to day 0); higher = more growth / less cytotoxicity; PDxO 3D drug screen (set 2), 96 h, CTG-3D normalised to day-0 seeding control.
- recorded.conditions: 10 µM; days in culture: 382
measured.property: CTG-3D luminescence at 96 h

CC(=O)O[C@@]12CO[C@@H]1C[C@H](O)[C@@]1(C)C(=O)[C@H](O)C3=C(C)[C@@H](OC(=O)[C@H](O)[C@@H](NC(=O)OC(C)(C)C)c4ccccc4)C[C@@](O)([C@@H](OC(=O)c4ccccc4)[C@H]21)C3(C)C	0.547
COc1cccc2c1C(=O)c1c(O)c3c(c(O)c1C2=O)C[C@@](O)(C(=O)CO)C[C@@H]3O[C@H]1C[C@H](N)[C@@H](O)[C@H](C)O1 [epirubicin]	0.161
CC(=O)c1c(C)c2cnc(Nc3ccc(N4CCNCC4)cn3)nc2n(C2CCCC2)c1=O	1.66
Nc1cc(C(F)(F)F)c(-c2cc(N3CCOCC3)nc(N3CCOCC3)n2)cn1	0.363

----------
- Test system: HCI-001 (organoid from a triple-negative breast cancer xenograft)
- assay.method.text: CTG-3D luminescence at 96 h relative to day-0 seeding control (ratio to day 0); higher = more growth / less cytotoxicity; PDxO 3D drug screen, 96 h, CTG-3D normalised to day-0 seeding control.
- recorded.conditions: 625 fM; days in culture: 260
Rule: CTG-3D luminescence at 96 h of 1 or more gives true (1); anything lower gives false (0).

NC(=O)Nc1cc(-c2cccc(F)c2)sc1C(=O)N[C@H]1CCCNC1	true (1)
NC(=O)c1cccc2cn(-c3ccc([C@@H]4CCCNC4)cc3)nc12	true (1)
CC(=O)O[C@H]1C(=O)[C@@]2(C)[C@H]([C@H](OC(=O)c3ccccc3)[C@]3(O)C[C@H](OC(=O)[C@H](O)[C@@H](NC(=O)c4ccccc4)c4ccccc4)C(C)=C1C3(C)C)[C@]1(OC(C)=O)CO[C@@H]1C[C@@H]2O	true (1)
O=C(O)C1(C(=O)O)CCC1.[NH2-].[NH2-].[Pt+2]	false (0)
CC[C@H](NC(=O)[C@H](C)NC)C(=O)N1C[C@@H](O)C[C@H]1Cc1c(-c2[nH]c3cc(F)ccc3c2C[C@@H]2C[C@H](O)CN2C(=O)[C@H](CC)NC(=O)[C@H](C)NC)[nH]c2cc(F)ccc12	true (1)
CNC(=O)c1cccc(-c2ccc3c(N4CCOC[C@@H]4C)nc(N4CCOC[C@@H]4C)nc3n2)c1	true (1)

----------
- Test system: HCI-019 (organoid from a triple-negative breast cancer xenograft)
- assay.method.text: CTG-3D luminescence at 96 h relative to day-0 seeding control (ratio to day 0); higher = more growth / less cytotoxicity; PDxO 3D drug screen, 96 h, CTG-3D normalised to day-0 seeding control.
- recorded.conditions: 1 µM; days in culture: 152
Recorded CTG-3D luminescence at 96 h by entry
measured.property: CTG-3D luminescence at 96 h

COc1cccc2c1C(=O)c1c(O)c3c(c(O)c1C2=O)C[C@@](O)(C(=O)CO)C[C@@H]3O[C@H]1C[C@H](N)[C@H](O)[C@H](C)O1	0.409
C[C@H](NC(=O)CCC(F)(F)F)C(=O)N[C@@H]1C(=O)N(CCO)c2ncccc2-c2ccccc21	1.96
COc1cc2c(Oc3ccc4[nH]c(C)cc4c3F)ncnc2cc1OCCCN1CCCC1	0.851
NC(=O)c1cccc2cn(-c3ccc([C@@H]4CCCNC4)cc3)nc12	0.878
O=C(c1ccc(F)c(F)c1Nc1ccc(I)cc1F)N1CC(O)([C@@H]2CCCCN2)C1	1.11
CC1(C)CCC(c2ccc(Cl)cc2)=C(CN2CCN(c3ccc(C(=O)NS(=O)(=O)c4ccc(N[C@H](CCN5CCOCC5)CSc5ccccc5)c(S(=O)(=O)C(F)(F)F)c4)cc3)CC2)C1	0.769
CN(Cc1cnc2nc(N)nc(N)c2n1)c1ccc(C(=O)N[C@@H](CCC(=O)O)C(=O)O)cc1 [methotrexate]	2.27
CCN1CCN(Cc2ccc(Nc3ncc(F)c(-c4cc(F)c5nc(C)n(C(C)C)c5c4)n3)nc2)CC1	2.13
O=C(O)C1(C(=O)O)CCC1.[NH2-].[NH2-].[Pt+2]	1.99
